# Tested on: Enterobacter cloacae strain CDC 442-68 (ATCC #13047)
# RUN_DESCRIPTION: bacterial proliferation assay, E. cloacae
# Format: cell-based
# PARTICULARS: ATCC13047, read-out: Bacterial Proliferation EC50 E. cloacae
Overview of reported EC50 across a group of molecules:
READOUT_TYPE: EC50 (µM)

>>> reported("O=C(N/N=C/c1ccc([N+](=O)[O-])o1)c1ccncc1 [Compound 19]")
73
>>> reported("O=Cc1ccc(O)c2ncccc12 [Compound 40, reference compound]")
24

###

pIC50 values for the compounds below.
# STUDY_TARGET: E. coli GroEL/ES (Escherichia coli, UniProt P0A6F5)
# Construct: made in house; host or cells: GroEL in NEB 5-alpha E. coli; GroES in E. coli BL21 (DE3)
# Sequence (P0A6F5 2-548): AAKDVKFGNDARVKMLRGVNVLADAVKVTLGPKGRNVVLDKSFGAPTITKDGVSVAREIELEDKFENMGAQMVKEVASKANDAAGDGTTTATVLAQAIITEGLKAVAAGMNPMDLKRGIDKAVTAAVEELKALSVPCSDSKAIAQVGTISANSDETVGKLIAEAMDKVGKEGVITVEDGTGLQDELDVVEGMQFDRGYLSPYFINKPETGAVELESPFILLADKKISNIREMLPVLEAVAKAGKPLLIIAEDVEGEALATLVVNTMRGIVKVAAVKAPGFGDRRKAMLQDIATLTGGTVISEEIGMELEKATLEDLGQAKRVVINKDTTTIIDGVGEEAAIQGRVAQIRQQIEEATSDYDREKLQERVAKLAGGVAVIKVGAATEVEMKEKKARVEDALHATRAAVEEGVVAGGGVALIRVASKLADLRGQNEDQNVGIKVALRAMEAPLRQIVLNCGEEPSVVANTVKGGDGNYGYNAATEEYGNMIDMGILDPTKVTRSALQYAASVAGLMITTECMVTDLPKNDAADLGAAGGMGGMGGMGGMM
# RUN_DESCRIPTION: GroEL/ES-mediated dRho refolding assay
# Format: biochemical
pIC50: −log10 of the molar value.
READOUT_TYPE: pIC50

>>> reported("CCN(CC)S(=O)(=O)c1cccc(C(=O)N/N=C/c2ccc([N+](=O)[O-])o2)c1")
4.00
>>> reported("O=C(N/N=C/c1ccc(O)c2ncccc12)c1ccc(NS(=O)(=O)c2cccs2)cc1")
6.09

###

// values below are reported pIC50
# STUDY_TARGET: E. coli GroEL/ES (Escherichia coli, UniProt P0A6F5)
# Construct: made in house; host or cells: GroEL in NEB 5-alpha E. coli; GroES in E. coli BL21 (DE3)
# RUN_DESCRIPTION: GroEL/ES-mediated dMDH refolding assay in the presence of E. coli NfsB nitroreductase
# Type: biochemical
# PARTICULARS: with E. coli NfsB nitroreductase; read-out: NfsB-GroEL/ES-dMDH Refolding IC50
pIC50: −log10 of the molar value.
READOUT_TYPE: pIC50

>>> reported("O=C(N/N=C/c1ccc([N+](=O)[O-])o1)c1ccc(O)cc1 [Nifuroxazide, reference compound]")
4.72
>>> reported("O=C(N/N=C/c1ccc([N+](=O)[O-])o1)c1ccccc1")
4.92
>>> reported("CN(C)c1ccc(C(=O)N/N=C/c2ccc([N+](=O)[O-])o2)cc1")
4.92
>>> reported("O=C1CN(/N=C/c2ccc([N+](=O)[O-])o2)C(=O)N1 [Nitrofurantoin, reference compound]")
4.08
>>> reported("COc1ccc(C(=O)N/N=C/c2ccc([N+](=O)[O-])o2)cc1")
5.00
>>> reported("O=C(N/N=C/c1ccc([N+](=O)[O-])o1)c1ccc(Cl)s1")
5.49
>>> reported("O=C(N/N=C/c1ccc([N+](=O)[O-])o1)c1ccncc1")
4.64
>>> reported("O=C(N/N=C/c1ccc([N+](=O)[O-])o1)c1cccs1")
5.11

###

Form field: CC50 at 48 h (one value per entry).
# RUN_DESCRIPTION: in vitro
# PARTICULARS: human
READOUT_TYPE: CC50 at 48 h

>>> reported("O=C(N/N=C/c1ccc(O)c2ncccc12)c1ccncc1")
"75 µM"
>>> reported("O=C(N/N=C/c1ccc([N+](=O)[O-])o1)c1ccc(NS(=O)(=O)c2cccs2)cc1")
"70 µM"
>>> reported("COc1ccc(C(=O)N/N=C/c2cccc3ncccc23)cc1")
"> 100 µM"
>>> reported("O=C(N/N=C/c1cccc2ncccc12)c1ccccc1")
"> 100 µM"
>>> reported("COc1ccc(C(=O)N/N=C/c2ccco2)cc1")
"> 100 µM"
>>> reported("O=C(N/N=C/c1cccc2ccccc12)c1ccccc1")
"> 100 µM"
>>> reported("O=C(N/N=C/c1ccccc1)c1ccccc1 [Compound 38, N′-benzylidenebenzohydrazide]")
"> 100 µM"
>>> reported("O=C(N/N=C/c1ccc(O)c2ncccc12)c1ccc(O)cc1")
"67 µM"
>>> reported("COc1ccc(C(=O)N/N=C/c2ccc(O)cc2)cc1")
"> 100 µM"
>>> reported("O=C(N/N=C/c1ccc(O)c2ncccc12)c1cccs1")
"86 µM"
>>> reported("COc1ccc(C(=O)N/N=C/c2ccccc2)cc1 [Compound 37, N′-benzylidene-4-methoxybenzohydrazide]")
"> 100 µM"
>>> reported("CCOc1ccc(S(=O)(=O)Nc2ccc(C(=O)N/N=C/c3ccc([N+](=O)[O-])o3)cc2)cc1")
"> 100 µM"
>>> reported("O=C1CN(/N=C/c2ccc(O)c3ncccc23)C(=O)N1")
"> 100 µM"
>>> reported("O=C(N/N=C/c1ccc(O)cc1)c1ccccc1 [Compound 36, N′-(4-hydroxybenzylidene)benzohydrazide]")
"> 100 µM"
>>> reported("COc1ccc(C(=O)N/N=C/c2ccc(O)c3ccccc23)cc1")
"> 100 µM"
